Origin of measurements: ChEMBL document CHEMBL4689842

System: Fibroblast
measurement.notes: Incucyte cell viability with human fibroblast; note: filed as whole numbers so only -1 and 0 and 1 occur
Format: toxicity, cell-based
stated.conditions: 18 h, 10 µM, compound concentration 10 uM, replicate number 1, timepoint 18 hours
As shown below, each of these compounds has a reported Growth Rate value.
Number only, no unit.

* CCOC(=O)c1cc2cc(-c3cc(C(=O)NCc4ccc(C(=O)O)cc4)nn3C)ccc2[nH]1 | 1
* Cn1c(CNc2cccc(C(=O)NCc3ccccc3C(F)(F)F)c2)nnc1-c1ccncc1 | 0
* CCCSc1nc(N[C@@H]2C[C@H]2c2ccc(F)c(F)c2)c2nnn([C@@H]3C[C@H](OCCO)[C@@H](O)[C@H]3O)c2n1 | 0
* C=CC(=O)Nc1cccc(Oc2nc(Nc3ccc(N4CCN(C)CC4)cc3OC)ncc2Cl)c1 | 0
* C=CC(=O)Nc1cccc(Sc2nc(Nc3ccc(N4CCN(C)CC4)cc3)ncc2Cl)c1 | 0
* CC(C)Oc1ccc(-c2c[nH]cc2CN(C)CCN)cc1 | 1
* COC(=O)/C=C/c1cccc(N(Cc2ccc(-c3ccc(N(C)C)cc3)cc2)C(=O)C2CCCCC2)c1 | 1
* O=C(Cc1ccccc1)Nc1nc2ccc(Cl)cc2c2nc(-c3ccco3)nn12 | 0

Attention now shifts to the item below.
Supply recorded Growth Rate for CN(C)C(=O)Cn1cc(-c2nc([C@@](C)(c3ccc(-c4cnc(N)nc4)cc3)C3CC3)no2)cn1 here.
0

====

System: Fibroblast
measurement.notes: Multiplex assay against human fibroblast
Assay type: toxicity, cell-based
stated.conditions: 12 h, 10 µM, compound concentration 10 uM, replicate 1
As shown below, each of these compounds has a reported Population Mitochondria Different-Phenotype (%) value.
Give the number; % is assumed, so skip it.

Record excerpt, results attached:
* CNC(=O)Nc1ccc2c(c1)[C@@]1(CC2)OC(=O)N(CC(=O)N(Cc2ccc(F)cc2)[C@@H](C)C(F)(F)F)C1=O | 5
* O=c1cc(N2CCOCC2)oc2c(-c3cccc4c3sc3ccccc34)cccc12 | 28
* CNC(=O)c1ccc(Nc2ncc(C(F)(F)F)c(NCc3nccnc3N(C)S(C)(=O)=O)n2)cc1 | 3
* CC1=C(C(=O)Nc2cc3cn[nH]c3cc2F)C(c2ccc(C(F)(F)F)cc2)CC(=O)N1 (stereo unspecified) | 11
* CC(C)Oc1ccccc1C(=O)Nc1ccccc1C(=O)Nc1cccc(S(=O)(=O)C(F)(F)F)c1 | 47

Supply recorded Population Mitochondria Different-Phenotype (%) for C=CC(=O)Nc1cccc(Sc2nc(Nc3ccc(N4CCN(C)CC4)cc3)ncc2Cl)c1 here.
5

Supply recorded Population Mitochondria Different-Phenotype (%) for COc1ccc(-c2ccc3ncc4c(c3c2)n(-c2ccc(N3CCNCC3)c(C(F)(F)F)c2)c(=O)n4C)cn1.O=C(O)/C=C\C(=O)O here.
0

Supply recorded Population Mitochondria Different-Phenotype (%) for C=CC(=O)Nc1ccc2[nH]c(=O)n(C3CCN(Cc4ccc(-c5nc6cc[nH]c(=O)c6cc5-c5ccccc5)cc4)CC3)c2c1 here.
4

====

As shown below, each of these compounds has a reported Population Tubulin-Different-Phenotype (%) value.
Test system: U2OS
measurement.notes: Multiplex assay against U2OS
Type: toxicity, cell-based
stated.conditions: human, 24 h, 1 µM, compound concentration 1 uM, replicate 1
Give the number; % is assumed, so skip it.

Record excerpt, results attached:
• CCOC(=O)Nc1cc(-c2ccc(C)c(NS(C)(=O)=O)c2)nn2c(C)nnc12 = 32
• Cc1cccc(CN2CCN(C(c3ccccc3)c3ccc(Cl)cc3)CC2)c1.Cl.Cl (configuration not stated) = 2
• CC(C)c1noc(N2CCC(COc3ccc(-c4ccc(S(C)(=O)=O)cc4)nc3)CC2)n1 [GSK-1292263] = 5
• CC1=C(C(=O)Nc2cc3cn[nH]c3cc2F)C(c2ccc(C(F)(F)F)cc2)CC(=O)N1 (configuration not stated) = 9
• O=C(c1cc2c(cc1F)OC(c1ccc(F)cc1)(c1ccc(Cl)cc1Cl)O2)N1CCOCC1 (configuration not stated) = 12

Retrieve Population Tubulin-Different-Phenotype (%) on U2OS; query O=c1[nH]c2ccccc2n1C1CCN(Cc2ccc(-c3[nH]c4cc5ncnc5cc4nc3-c3ccccc3)cc2)CC1
16

Retrieve Population Tubulin-Different-Phenotype (%) on U2OS; query COc1ccc(-c2ccc3ncc4c(c3c2)n(-c2ccc(N3CCNCC3)c(C(F)(F)F)c2)c(=O)n4C)cn1.O=C(O)/C=C\C(=O)O [BGT-226]
75

Retrieve Population Tubulin-Different-Phenotype (%) on U2OS; query Cl.O=C(O)c1cc(-c2ccc(C3CCNCC3)cc2)c2ccc(-c3ccc(C(F)(F)F)cc3)cc2c1
12

Retrieve Population Tubulin-Different-Phenotype (%) on U2OS; query CC(C)NC(=O)N1CC[C@H](NC2=Nc3cc(F)ccc3N(CC(F)F)c3ccc(Cl)cc32)C1
21

Retrieve Population Tubulin-Different-Phenotype (%) on U2OS; query CCc1nn(CCCN2CCN(c3cccc(Cl)c3)CC2)c(=O)n1CCOc1ccccc1.Cl [NEFAZODONE HYDROCHLORIDE]
22

Retrieve Population Tubulin-Different-Phenotype (%) on U2OS; query COc1cc2ncn(-c3cc(OCc4ccccc4C(F)(F)F)c(C(N)=O)s3)c2cc1OC [GW843682X]
20

Retrieve Population Tubulin-Different-Phenotype (%) on U2OS; query C[C@]12CC[C@@H]3c4ccc(O)cc4CC[C@H]3[C@@H]1CC[C@@H]2O [ESTRADIOL]
15

====

Test system: HEK-293T
measurement.notes: Multiplex assay against HEK293T
Type: toxicity, cell-based
stated.conditions: human, 24 h, 10 µM, compound concentration 10 uM, replicate 1
As shown below, each of these compounds has a reported Population Pyknosed Nuclei (%) value.
Give the number; % is assumed, so skip it.

- CC(C)NC(=O)N1CC[C@H](NC2=Nc3cc(F)ccc3N(CC(F)F)c3ccc(Cl)cc32)C1: 50

Supply recorded Population Pyknosed Nuclei (%) for CNC(=O)Nc1ccc(-c2nc(N3CC4CCC(C3)O4)c3cnn(C4CCC5(CC4)OCCO5)c3n2)cc1 here.
73

Supply recorded Population Pyknosed Nuclei (%) for CCc1nn(CCCN2CCN(c3cccc(Cl)c3)CC2)c(=O)n1CCOc1ccccc1.Cl [NEFAZODONE HYDROCHLORIDE] here.
52

Supply recorded Population Pyknosed Nuclei (%) for Cc1ccccc1C(c1ccccc1C)N1C2CCC1CC(O)(c1ccccc1)C2 (stereo unspecified) here.
48

Supply recorded Population Pyknosed Nuclei (%) for C=CC(=O)Nc1cccc(Oc2nc(Nc3ccc(N4CCN(C)CC4)cc3OC)ncc2Cl)c1 here.
8

Supply recorded Population Pyknosed Nuclei (%) for CC(C)OC(=O)N1CCC(Oc2ncnc3c2cnn3-c2ccc(S(C)(=O)=O)cc2F)CC1 here.
48

====

Test system: HEK-293T
measurement.notes: Multiplex assay against HEK293T
Format: toxicity, cell-based
stated.conditions: human, 24 h, 10 µM, compound concentration 10 uM, replicate 1
readout.name: Total Cell Count
Number only, no unit.

Record excerpt, results attached:
- CCc1ccc(OCc2ccccc2C(=O)Nc2ccc3nc(C)cc(N)c3c2)cc1.Cl: 135
- COc1ccccc1CN[C@H]1C2CCN(CC2)[C@H]1C(c1ccccc1)c1ccccc1: 298
- Cc1ccc2c(c1)c1c(n2CCc2ccc(C)nc2)CCN(C)C1 [LATREPIRDINE]: 242

Attention now shifts to the item below.
Retrieve Total Cell Count on HEK-293T; query COc1ccc(-c2ccc3ncc4c(c3c2)n(-c2ccc(N3CCNCC3)c(C(F)(F)F)c2)c(=O)n4C)cn1.O=C(O)/C=C\C(=O)O
317

====

As shown below, each of these compounds has a reported Population Normal (%) value.
Test system: HEK-293T
measurement.notes: Multiplex assay against HEK293T
Format: toxicity, cell-based
stated.conditions: human, 12 h, 10 µM, compound concentration 10 uM, replicate 1
Give the number; % is assumed, so skip it.

* O=c1[nH]c2ccccc2n1C1CCN(Cc2ccc(-c3[nH]c4cc5ncnc5cc4nc3-c3ccccc3)cc2)CC1 | 79
* CC(C)c1noc(N2CCC(COc3ccc(-c4ccc(S(C)(=O)=O)cc4)nc3)CC2)n1 | 81

Attention now shifts to the item below.
Supply recorded Population Normal (%) for CCCSc1nc(N[C@@H]2C[C@H]2c2ccc(F)c(F)c2)c2nnn([C@@H]3C[C@H](OCCO)[C@@H](O)[C@H]3O)c2n1 here.
79

====

Tested on: U2OS
measurement.notes: Multiplex assay against U2OS
Format: toxicity, cell-based
stated.conditions: human, 24 h, 10 µM, compound concentration 10 uM, replicate 2
readout.name: Population Tubulin-Different-Phenotype (%)
Give the number; % is assumed, so skip it.

- CC1=C(C(=O)Nc2cc3cn[nH]c3cc2F)C(c2ccc(C(F)(F)F)cc2)CC(=O)N1 (centres undefined): 29
- CCc1ccc(OCc2ccccc2C(=O)Nc2ccc3nc(C)cc(N)c3c2)cc1.Cl: 94
- CC(C)CC(=O)Nc1[nH]nc2c1CN(C(=O)C1CCN(C)CC1)C2(C)C: 29

Supply recorded Population Tubulin-Different-Phenotype (%) for CNC(=O)Nc1ccc(-c2nc(N3CC4CCC(C3)O4)c3cnn(C4CCC5(CC4)OCCO5)c3n2)cc1 here.
96
